- system: human p70S6 kinase (p70S6K, kinase domain residues 1-421, T412E mutation) (Homo sapiens, UniProt P23443, T412E)
- Construct: human p70S6 kinase domainresidues 1-421, containing a T412E mutation
- Sequence (P23443 1-421 T412E): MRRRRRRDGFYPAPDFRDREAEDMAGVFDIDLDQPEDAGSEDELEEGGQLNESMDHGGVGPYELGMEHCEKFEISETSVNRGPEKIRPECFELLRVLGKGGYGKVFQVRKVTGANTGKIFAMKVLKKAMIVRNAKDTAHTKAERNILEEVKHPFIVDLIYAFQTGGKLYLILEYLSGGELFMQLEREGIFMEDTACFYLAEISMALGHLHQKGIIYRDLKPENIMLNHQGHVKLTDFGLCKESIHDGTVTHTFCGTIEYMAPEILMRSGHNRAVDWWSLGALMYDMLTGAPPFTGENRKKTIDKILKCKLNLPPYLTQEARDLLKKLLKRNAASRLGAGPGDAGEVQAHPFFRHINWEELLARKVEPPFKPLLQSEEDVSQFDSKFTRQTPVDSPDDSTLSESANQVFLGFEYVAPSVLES
- assay.method.text: p70S6 kinase assay, Luciferase-Coupled Chemiluminescent Kinase assay (LCCA)
- test.conditions: 5 μM ATP, 12 nM p70S6K; read-out: p70S6K inhibition IC50
pIC50: −log10 of the molar value.
In this section, each of the molecules is paired with its reported pIC50.
assay.readout: pIC50

[[record]]
molecule = "Clc1ccc(CN2CCN(c3ncnc4[nH]nc(Br)c34)CC2)cc1Cl [Entry 27]"
assay_readout = "pIC50"
reported = "> 7.30"

[[record]]
molecule = "Brc1n[nH]c2ncnc(N3CCN(Cc4ccccc4)CC3)c12 [Entry 50]"
assay_readout = "pIC50"
reported = "6.30 to 7.30"

[[record]]
molecule = "CN(C)CCO[C@H](c1ccc(Cl)cc1)C1CCN(c2ncnc3[nH]nc(Br)c23)CC1 [Entry 89]"
assay_readout = "pIC50"
reported = "> 7.30"

[[record]]
molecule = "CN(C)CCNC(=O)N(c1ccc(Br)c(F)c1)C1CCN(c2ncnc3[nH]nc(Br)c23)CC1 [Entry 87]"
assay_readout = "pIC50"
reported = "> 7.30"

[[record]]
molecule = "C[C@H]1CN(c2ncnc3[nH]nc(Br)c23)CCN1Cc1ccc(Cl)cc1 [Entry 31]"
assay_readout = "pIC50"
reported = "> 7.30"

[[record]]
molecule = "CN(Cc1ccccn1)C(c1ccc(F)cc1)C1CCN(c2ncnc3[nH]nc(Br)c23)CC1 (stereo not drawn) [Entry 97]"
assay_readout = "pIC50"
reported = "6.30 to 7.30"

[[record]]
molecule = "Fc1ccc(CN2CCN(c3ncnc4[nH]nc(Br)c34)CC2)c(Cl)c1 [Entry 48]"
assay_readout = "pIC50"
reported = "> 7.30"

[[record]]
molecule = "N#Cc1cccc(CN2CCN(c3ncnc4[nH]nc(Br)c34)CC2)c1 [Entry 55]"
assay_readout = "pIC50"
reported = "6.30 to 7.30"

[[record]]
molecule = "Fc1cccc(Cl)c1CN1CCN(c2ncnc3[nH]nc(Br)c23)CC1 [Entry 56]"
assay_readout = "pIC50"
reported = "6.30 to 7.30"

[[record]]
molecule = "COCCCNC(=O)c1ccc(CN2CCN(c3ncnc4[nH]nc(Br)c34)CC2)cc1 [Entry 82]"
assay_readout = "pIC50"
reported = "< 5.70"

[[record]]
molecule = "Brc1n[nH]c2ncnc(N3CCN(Cc4ccc(Oc5ccccc5)cc4)CC3)c12 [Entry 39]"
assay_readout = "pIC50"
reported = "> 7.30"

[[record]]
molecule = "O=C(c1ccc(F)cc1)C1CCN(c2ncnc3[nH]nc(Br)c23)CC1 [Entry 20]"
assay_readout = "pIC50"
reported = "> 7.30"

[[record]]
molecule = "COc1ccc(CN2CCN(c3ncnc4[nH]nc(Br)c34)CC2)cc1 [Entry 32]"
assay_readout = "pIC50"
reported = "> 7.30"

[[record]]
molecule = "Brc1n[nH]c2ncnc(N3CCN(CCCN4CCCC4)CC3)c12 [Entry 69]"
assay_readout = "pIC50"
reported = "5.70 to 6.30"

[[record]]
molecule = "Brc1n[nH]c2ncnc(N3CCN(Cc4cccnc4)CC3)c12 [Entry 60]"
assay_readout = "pIC50"
reported = "6.30 to 7.30"

[[record]]
molecule = "CCN(CC)CCS(=O)(=O)N(c1ccc(Cl)cc1)C1CCN(c2ncnc3[nH]nc(Br)c23)CC1 [Entry 29]"
assay_readout = "pIC50"
reported = "> 7.30"

[[record]]
molecule = "CN(C)CCO[C@@H](c1ccc(Cl)cc1)C1CCN(c2ncnc3[nH]nc(Br)c23)CC1 [Entry 86]"
assay_readout = "pIC50"
reported = "> 7.30"

[[record]]
molecule = "Clc1ccc(OC2CCN(c3ncnc4[nH]nc(Br)c34)CC2)cc1 [Entry 101]"
assay_readout = "pIC50"
reported = "6.30 to 7.30"

[[record]]
molecule = "COc1cc(OC)nc(C(c2ccccc2)N2CCN(c3ncnc4[nH]nc(Br)c34)CC2)n1 (stereo not drawn) [Entry 77]"
assay_readout = "pIC50"
reported = "< 5.70"

[[record]]
molecule = "Clc1ccc(NC2CCN(c3ncnc4[nH]nc(Br)c34)CC2)cc1 [Entry 59]"
assay_readout = "pIC50"
reported = "6.30 to 7.30"

[[record]]
molecule = "Clc1ccc(CN2CCN(c3ncnc4[nH]nc(Br)c34)CC2)cc1 [Entry 19]"
assay_readout = "pIC50"
reported = "> 7.30"

[[record]]
molecule = "Clc1ccc([C@H](OCCN2CCCC2)C2CCN(c3ncnc4[nH]nc(Br)c34)CC2)cc1 [Entry 90]"
assay_readout = "pIC50"
reported = "> 7.30"

[[record]]
molecule = "Brc1ccccc1CN1CCN(c2ncnc3[nH]nc(Br)c23)CC1 [Entry 45]"
assay_readout = "pIC50"
reported = "> 7.30"

[[record]]
molecule = "OC(c1ccc2cc[nH]c2c1)N1CCN(c2ncnc3[nH]nc(Br)c23)CC1 (stereo not drawn) [Entry 99]"
assay_readout = "pIC50"
reported = "6.30 to 7.30"

